# Test system: interferon-stimulated responsive elements (ISRE)
# assayExplanation: Activation of ISRE promoter elements by conditioned media from PBMC (HEK-ISREluc)
# Format: cell-based, human
# Design: unit not given here
# conditionDetails: compound applied to PBMCs, supernatant transferred to HEK-ISREluc cells, 24 hours
measureName: HEK-ISRE luc (LEC)
Give a plain numeric answer without units written out.

Example entries begin here.
{"smilesString": "CCCCNc1nc(N)nc2cc(Cl)c3c(c12)OCCO3", "measureName": "HEK-ISRE luc (LEC)", "assayValue": 1.11}
{"smilesString": "CCCC[C@@H](CCO)Nc1nc(N)nc2cccc(F)c12", "measureName": "HEK-ISRE luc (LEC)", "assayValue": 0.09}

**Query** Sample `CCC[C@@H](CCO)Nc1nc(N)nc2cc(OC)ccc12` — what was its HEK-ISRE luc (LEC)?
**Result** 0.04

----------
Item-by-item account of TLR7-wt (LEC)
# experimentalSystem: human TLR7 (Homo sapiens, UniProt Q9NYK1)
# Construct: expressed in transfected cells; host or cells: HEK293
# Sequence (Q9NYK1 27-1049): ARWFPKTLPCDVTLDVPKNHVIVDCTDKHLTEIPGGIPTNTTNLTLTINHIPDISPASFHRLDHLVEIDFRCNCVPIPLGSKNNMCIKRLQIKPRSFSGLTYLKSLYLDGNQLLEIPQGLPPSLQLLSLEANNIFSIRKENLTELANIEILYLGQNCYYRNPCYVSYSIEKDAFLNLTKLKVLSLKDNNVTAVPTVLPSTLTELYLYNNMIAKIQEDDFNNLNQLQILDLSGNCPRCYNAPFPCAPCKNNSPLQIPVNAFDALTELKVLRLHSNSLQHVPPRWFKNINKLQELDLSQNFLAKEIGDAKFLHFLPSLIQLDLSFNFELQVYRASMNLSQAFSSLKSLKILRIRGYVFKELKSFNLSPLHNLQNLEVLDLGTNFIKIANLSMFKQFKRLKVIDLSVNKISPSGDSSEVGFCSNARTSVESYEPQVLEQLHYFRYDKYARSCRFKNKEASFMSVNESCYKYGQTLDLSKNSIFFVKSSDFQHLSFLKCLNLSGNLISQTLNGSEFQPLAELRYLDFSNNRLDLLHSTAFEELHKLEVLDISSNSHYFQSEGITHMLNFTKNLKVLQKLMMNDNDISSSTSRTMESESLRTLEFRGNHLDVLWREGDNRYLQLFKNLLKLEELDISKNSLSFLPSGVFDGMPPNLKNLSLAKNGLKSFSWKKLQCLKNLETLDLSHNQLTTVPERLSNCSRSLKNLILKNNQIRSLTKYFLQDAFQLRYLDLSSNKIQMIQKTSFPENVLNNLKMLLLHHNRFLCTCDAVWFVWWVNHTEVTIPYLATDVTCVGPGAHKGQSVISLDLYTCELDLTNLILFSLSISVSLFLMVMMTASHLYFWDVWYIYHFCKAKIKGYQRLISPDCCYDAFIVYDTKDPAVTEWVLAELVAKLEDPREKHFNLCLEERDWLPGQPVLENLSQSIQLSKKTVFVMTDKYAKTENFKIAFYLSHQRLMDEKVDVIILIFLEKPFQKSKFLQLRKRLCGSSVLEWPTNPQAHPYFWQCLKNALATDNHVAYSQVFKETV
# assayExplanation: TLR7 wild type NFκB-luc cellular reporter assay
# Format: cell-based
# Design: unit not given here
# conditionDetails: HEK293 NFκB-luc reporter, 6 hours incubation; second part of table
# Description: The ability of compounds to activate human TLR7 and/or TLR8 was assessed in a cellular reporter assay using HEK293 cells transiently transfected with a TLR7 or TLR8 expression vector and NFκB-luc reporter construct. In one instance the TLR expression construct expresses the respective wild type sequence or a mutant sequence comprising a deletion in the second leucine-rich repeat of the TLR. Briefly, HEK293 cells were grown in culture medium (DMEM supplemented with 10% FCS and 2 mM Glutamine). […]
Lab note: write the figure by itself, no unit.

The examples below pair each entry with its known result.
{"molecule": "CCC[C@@H](CCO)Nc1nc(N)nc2ccc(CC)cc12", "TLR7-wt (LEC)": 0.57}
{"molecule": "CCCC[C@@H](CO)Nc1nc(N)nc2c(F)cccc12", "TLR7-wt (LEC)": 0.29}
{"molecule": "CCCC[C@@H](CCO)Nc1nc(N)nc2cccc(F)c12", "TLR7-wt (LEC)": 0.44}

**Query** Give TLR7-wt (LEC) (human TLR7 (Homo sapiens, UniProt Q9NYK1)) of the following molecule: `CCCCNc1nc(N)nc2cc(OC)c(OCc3ccccc3)cc12`
**Result** 1.84

**Query** Thanks! And CCCCNc1nc(N)nc2ccc(C#CC(C)O)cc12 (stereo not drawn) ?
**Result** 0.65

**Query** Next entry: `CCC[C@@H](CCO)Nc1nc(N)nc2ccc(C)cc12`
**Result** 0.54

----------
# System: interferon-stimulated responsive elements (ISRE)
# assayExplanation: Activation of ISRE promoter elements by conditioned media from PBMC (HEK-ISREluc)
# Type: cell-based, human
# Design: unit not given here
# conditionDetails: compound applied to PBMCs, supernatant transferred to HEK-ISREluc cells, 24 hours
The reader will find reported HEK-ISRE luc (LEC) values listed item by item below.
Please give the numeric answer without any surrounding text.

A selection of reference data follows.
{"smilesString": "CCC[C@@H](CCO)Nc1nc(N)nc2ccc(C(C)C)cc12", "experimentalSystem": "interferon-stimulated responsive elements (ISRE)", "assayValue": 3.07}
{"smilesString": "CC[C@H](C)[C@@H](CO)Nc1nc(N)nc2ccc(F)cc12", "experimentalSystem": "interferon-stimulated responsive elements (ISRE)", "assayValue": 0.64}
{"smilesString": "CCCCNc1nc(N)nc2cccc(C)c12", "experimentalSystem": "interferon-stimulated responsive elements (ISRE)", "assayValue": 0.32}
{"smilesString": "CCC[C@@H](CCO)Nc1nc(N)nc2ccc(Oc3ccc(C(F)(F)F)cc3Cl)cc12", "experimentalSystem": "interferon-stimulated responsive elements (ISRE)", "assayValue": 14.21}
{"smilesString": "CCCCNc1nc(N)nc2cccc(OC)c12", "experimentalSystem": "interferon-stimulated responsive elements (ISRE)", "assayValue": 0.10}

**Query** For the compound shown here, `CCCCNc1nc(N)nc2cc(F)c(F)cc12` , give the reported HEK-ISRE luc (LEC).
**Result** 0.26

**Query** Now this one: `CCCCNc1nc(N)nc2ccc(-n3cnc(C)c3)cc12`
**Result** 12.06
